Overview of recorded clearance for various molecules
- Test Protocol: Clearance in ICR mouse at 3 mg/kg, iv measured upto 1440 mins by LC/MS/MS analysis
- Format: ADME, organism-based
- Run Parameters: in vivo
Your answer should be a plain number; it is taken to be in mL/min/kg.

Guide cases for clearance, answers given:
CCOc1cc2ncnc(Nc3ccc(Oc4cc5nncn5cn4)c(C)c3)c2cc1NC(=O)/C(F)=C\[C@@H]1CCCN1C
90
CCOc1cc2ncnc(Nc3ccc(Oc4cc5nncn5cn4)c(C)c3)c2cc1NC(=O)/C=C/[C@H]1CCCN1C
22

We next turn to a different molecule, shown below.
Entry under test: CCOc1cc2ncnc(Nc3ccc(Oc4cc5nncn5cn4)c(C)c3)c2cc1NC(=O)/C(F)=C/[C@H]1CCCN1C . Its clearance was 11.7

All figures here come from ChEMBL document CHEMBL5154811.
